molecular target: HLA-A*2902 (Homo sapiens, UniProt P04439, A270S/D101N/D185E/E176V/E277Q/E87Q/F33T/G231S/H175R/I121M/I218V/I322F/K168Q/L300P/L318F/M331R/P208A/P217A/Q86L/T323A/T345S/V100A/V358M); experiment: MHC molecular binding / Capture assay, IC50: A*2902; details: Binding affinity to A*2902 (expressed as an IC50)
METRIC NAME: pIC50
Note on units: pIC50 is unitless, being -log10 of a concentration expressed in mol/L.

Give me measured pIC50, please, for this compound: `CC(C)C[C@H](NC(=O)[C@H](CC(=O)O)NC(=O)[C@H](CC(C)C)NC(=O)[C@@H](NC(=O)[C@H](Cc1ccc(O)cc1)NC(=O)[C@H](CCC(=O)O)NC(=O)[C@H](CCCCN)NC(=O)[C@H](CC(C)C)NC(=O)[C@@H](NC(=O)[C@@H]1CCCN1)[C@@H](C)O)C(C)C)C(=O)N[C@@H](Cc1ccc(O)cc1)C(=O)O`
6.09

Give me measured pIC50, please, for this compound: `C[C@H](NC(=O)[C@H](CCC(N)=O)NC(=O)[C@@H](N)CCCNC(=N)N)C(=O)N[C@@H](CCCCN)C(=O)N[C@@H](CCC(N)=O)C(=O)N[C@@H](Cc1c[nH]cn1)C(=O)N[C@H](C(=O)N[C@@H](CS)C(=O)N[C@@H](Cc1ccc(O)cc1)C(=O)O)[C@@H](C)O`
3.81

Give me measured pIC50, please, for this compound: `CC(C)C[C@H](NC(=O)[C@H](Cc1c[nH]cn1)NC(=O)[C@H](CC(C)C)NC(=O)[C@H](CCCCN)NC(=O)[C@H](CCCNC(=N)N)NC(=O)CNC(=O)[C@H](Cc1ccc(O)cc1)NC(=O)[C@@H](NC(=O)[C@@H](N)CCCCN)[C@@H](C)O)C(=O)N[C@@H](Cc1ccc(O)cc1)C(=O)O`
7.57

Give me measured pIC50, please, for this compound: `CC(C)C[C@H](NC(=O)CNC(=O)[C@@H](NC(=O)[C@H](CC(N)=O)NC(=O)[C@@H](NC(=O)[C@H](CC(C)C)NC(=O)[C@H](CCCCN)NC(=O)[C@H](CCC(=O)O)NC(=O)[C@H](CC(C)C)NC(=O)[C@@H](N)[C@@H](C)O)[C@@H](C)O)[C@@H](C)O)C(=O)N[C@@H](Cc1ccc(O)cc1)C(=O)O`
5.26
